Collected growth values appear next to each entry.
System: COLO 205 colon
Assay: NCI-60 one-dose screen, 48 h (100 = growth as untreated, 0 = no growth, -100 = all killed)
Settings: 10 µM unless noted
The panel holds about 83,000 compounds, 20% with a hit somewhere; the sample as a whole holds those more often.
Quantity: growth (%)

[
  {
    "Molecule": "COc1cc(/C=C/c2cc(/C=C/c3ccc(O)c(OC)c3)n(-c3ccccc3)c(=O)n2)ccc1O",
    "Test Value": 71.3
  },
  {
    "Molecule": "CCC(CC)C(=O)OC(C)COc1ccc(C(C)(C)C)cc1 (stereo not given)",
    "Test Value": 124
  },
  {
    "Molecule": "Cn1cc(-c2csc(-c3cn(CCCN4CCCCC4)c4ccc(Br)cc34)n2)c2cccnc21",
    "Test Value": -79.5
  },
  {
    "Molecule": "COc1ccc2c(c1)c(-c1nc(-c3c[nH]c4ncccc34)cs1)cn2C",
    "Test Value": 83.7
  },
  {
    "Molecule": "Fc1cccc(-c2[nH]nc3nc(Nc4cccnc4)sc23)c1",
    "Test Value": 15.7
  },
  {
    "Molecule": "CCc1cccc(CC)c1NC(=O)c1sc2nc3c(cc2c1N)CCCC3",
    "Test Value": 105
  },
  {
    "Molecule": "Fc1ccc2nc(-c3cc(-c4ccc5c(c4)OCO5)n[nH]3)[nH]c2c1",
    "Test Value": 84.7
  },
  {
    "Molecule": "Oc1ccc(Nc2ccccc2)cc1",
    "Test Value": 109
  },
  {
    "Molecule": "O=C(NO)c1ccc(Cn2c(=O)n(-c3ccccc3)c(=O)c3ccccc32)cc1",
    "Test Value": -62.4
  },
  {
    "Molecule": "O=S(=O)(NCCNc1cc(-c2cn(-c3ccccc3)nc2-c2cccc(O)c2)ccn1)c1ccccc1",
    "Test Value": 18.3
  }
]

* * *

Test system: ACHN renal
Assay: NCI-60 one-dose screen, 48 h (100 = growth as untreated, 0 = no growth, -100 = all killed)
Settings: 10 µM unless noted
Compounds without any hit were thinned out: in the full panel of roughly 83,000, 20% have a hit. The source made the active and inactive calls. How the source made its calls: active means growth percent below 10; inactive means the rest.

[
  {
    "Molecule": "COc1ccc(/C=C/C(=O)NCCO)cc1",
    "growth": "101% (inactive)"
  },
  {
    "Molecule": "COC(=O)[C@]12CC[C@@H](C)[C@H](C)[C@@H]1C1=CC[C@@H]3[C@@]4(C)CC(=O)[C@H](OC(=O)c5ccco5)[C@@]5(C)COC(=C45)C[C@@]3(C)[C@]1(C)CC2",
    "growth": "25.9% (inactive)"
  },
  {
    "Molecule": "N=C(N)N=Nc1ccc(O)cc1",
    "growth": "20.8% [100 µM] (inactive)"
  },
  {
    "Molecule": "C=CC(=O)N[C@H](Cc1ccc(-c2cc(Cl)cc(Cl)c2)cc1)[C@H](O)[C@@H](O)C(=O)O",
    "growth": "101% (inactive)"
  },
  {
    "Molecule": "COc1ccc(C2NC(=O)Nc3ccccc32)c(OC)c1 (stereo not given)",
    "growth": "99.4% (inactive)"
  },
  {
    "Molecule": "Cc1ccc(NC2CC(=O)N(c3c(C)cc(C)cc3C)C2=O)c(C)c1 (stereo not given)",
    "growth": "101% (inactive)"
  },
  {
    "Molecule": "Cn1c2c(c3ccc(Cl)cc31)-n1cccc1C2=O",
    "growth": "78.2% (inactive)"
  },
  {
    "Molecule": "COc1cccc(NC(=O)c2sc3nc4c(cc3c2N)C(=O)CCC4)c1",
    "growth": "42.5% (inactive)"
  },
  {
    "Molecule": "C=C(C)[C@@H]1CC[C@]2(C)CC[C@]3(C)[C@H](CC[C@@H]4[C@@]5(C)CCCNC(C)(C)[C@@H]5CC[C@]43C)[C@@H]12",
    "growth": "95.5% (inactive)"
  },
  {
    "Molecule": "CCCC(=O)N1CCCCC1CC (stereo not given)",
    "growth": "97.1% (inactive)"
  }
]

Data origin: PubChem BioAssay (NCI)
